Tested Target: DRB1*07:01
Experimental Parameters: modification not given
Measurement Name: pIC50
Scale for pIC50: -log10 of concentration given in mol/L; no unit attached.

Problem: Recorded pIC50 for FRSSVLHSTQDLFLP [… (position 43)] , please?
Solution: 7.07
